Measurement Target: Stromelysin-1 (Homo sapiens)
Sequence (P08254 whole entry): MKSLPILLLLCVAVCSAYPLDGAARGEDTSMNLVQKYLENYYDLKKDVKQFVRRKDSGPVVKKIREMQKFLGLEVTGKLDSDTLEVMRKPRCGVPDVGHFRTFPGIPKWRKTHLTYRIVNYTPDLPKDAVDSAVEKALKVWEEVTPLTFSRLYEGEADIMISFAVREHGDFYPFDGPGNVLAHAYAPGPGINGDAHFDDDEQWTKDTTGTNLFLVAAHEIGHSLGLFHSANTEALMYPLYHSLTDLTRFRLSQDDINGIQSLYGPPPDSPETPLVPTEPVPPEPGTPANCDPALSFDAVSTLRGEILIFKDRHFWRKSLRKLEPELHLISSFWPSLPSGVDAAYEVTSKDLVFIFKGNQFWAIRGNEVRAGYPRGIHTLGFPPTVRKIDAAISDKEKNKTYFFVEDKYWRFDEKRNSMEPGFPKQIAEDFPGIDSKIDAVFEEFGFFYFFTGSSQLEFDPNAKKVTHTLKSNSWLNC
Test Method Notes: In vitro inhibition of recombinant human matrix metalloprotease-3 (MMP-3)
IC50 under 10 nM gets Condition met, anything at or over 10 nM gets Condition not met.

[
  {
    "Entry Smiles": "O=C(NCCCC[C@H](NS(=O)(=O)c1ccc(-c2ccc(Br)cc2)cc1)C(=O)O)OCc1ccccc1",
    "Measurement Target": "Stromelysin-1 (Homo sapiens)",
    "Assigned Category": "Condition not met"
  },
  {
    "Entry Smiles": "CC(C)[C@H](NS(=O)(=O)c1ccc(-c2cccc(Br)c2)cc1)C(=O)O",
    "Measurement Target": "Stromelysin-1 (Homo sapiens)",
    "Assigned Category": "Condition not met"
  },
  {
    "Entry Smiles": "CC(C)[C@H](NS(=O)(=O)c1ccc(-c2ccc(C#N)cc2)cc1)C(=O)NO",
    "Measurement Target": "Stromelysin-1 (Homo sapiens)",
    "Assigned Category": "Condition not met"
  },
  {
    "Entry Smiles": "CC(C)[C@@H](NS(=O)(=O)c1ccc(Oc2ccccc2)cc1)C(=O)NO",
    "Measurement Target": "Stromelysin-1 (Homo sapiens)",
    "Assigned Category": "Condition met"
  },
  {
    "Entry Smiles": "CC(C)[C@@H](NS(=O)(=O)c1ccc(-c2ccc(C#N)cc2)cc1)C(=O)NO",
    "Measurement Target": "Stromelysin-1 (Homo sapiens)",
    "Assigned Category": "Condition met"
  }
]

---

Test Method Notes: Pharmacokinetic parameters in rats following a single 5 mg/kg oral cassette gavage dose
Type: ADME, organism-based
Design: dose 5 mg/kg, route oral
Run Conditions: rat, in vivo, read-out: AUC 0-infinity
AUC under 300 µg·h/mL gets met, anything at or over 300 µg·h/mL gets not met.

[
  {
    "Entry Smiles": "CC(C)[C@H](NS(=O)(=O)c1ccc(-c2ccc(Cl)cc2)cc1)C(=O)O",
    "Assigned Category": "not met"
  },
  {
    "Entry Smiles": "CC(C)[C@H](NS(=O)(=O)c1ccc(-c2ccc(F)cc2)cc1)C(=O)O",
    "Assigned Category": "not met"
  },
  {
    "Entry Smiles": "CC(C)[C@@H](NS(=O)(=O)c1ccc(-c2ccc(Br)cc2)cc1)C(=O)NO",
    "Assigned Category": "met"
  },
  {
    "Entry Smiles": "CC(C)[C@H](NS(=O)(=O)c1ccc(-c2ccc(C(F)(F)F)cc2)cc1)C(=O)O",
    "Assigned Category": "not met"
  },
  {
    "Entry Smiles": "C[C@H](NS(=O)(=O)c1ccc(-c2ccc(Br)cc2)cc1)C(=O)O",
    "Assigned Category": "not met"
  },
  {
    "Entry Smiles": "CC(C)[C@H](NS(=O)(=O)c1ccc(-c2ccc(Br)cc2)cc1)C(=O)O",
    "Assigned Category": "not met"
  },
  {
    "Entry Smiles": "CC(C)[C@@H](NS(=O)(=O)c1ccc(-c2ccc(C#N)cc2)cc1)C(=O)O",
    "Assigned Category": "met"
  },
  {
    "Entry Smiles": "CC(C)[C@@H](NS(=O)(=O)c1ccc(Oc2ccccc2)cc1)C(=O)NO",
    "Assigned Category": "met"
  },
  {
    "Entry Smiles": "CC(C)[C@H](NS(=O)(=O)c1ccc(-c2ccc(C#N)cc2)cc1)C(=O)O",
    "Assigned Category": "not met"
  },
  {
    "Entry Smiles": "O=C(O)CNS(=O)(=O)c1ccc(-c2ccc(Br)cc2)cc1",
    "Assigned Category": "not met"
  }
]
